The origin of these recorded values is patent US9790228B2.

Quick reference: pIC50 of the listed items.
Molecular target: p110β/p85α (Homo sapiens)
Experiment: PI3K β inhibition assay (TLC lipid kinase or HTRF)
Type: biochemical
Settings: read-out: PI3K β IC50
pIC50: −log10 of the molar value.

CC(=O)Nc1nc2ccc(-c3nn(Cc4cc5ccccc5nc4N4CCN(C(C)C)CC4)c4ncnc(N)c34)cc2s1 > 7.00

If you can, please state the reported pIC50 value of "CC(C)Oc1nc2ccccc2cc1Cn1nc(-c2ccc3nc(N)sc3c2)c2c(N)ncnc21" .
< 6.00

I have this compound here, "CCn1c(=O)c(Cn2nc(-c3ccc4nc(NC(C)=O)sc4c3)c3c(N)ncnc32)nc2ccccc21" , and I need its recorded pIC50.
< 6.00

Entry under review: "CCn1c(=O)c(Cn2nc(-c3cccc(O)c3)c3c(N)ncnc32)nc2ccccc21" . Reported pIC50?
< 6.00

---

Biological target: p110β/p85α (Homo sapiens, UniProt P42338)
Sequence (P42338 whole entry, looked up): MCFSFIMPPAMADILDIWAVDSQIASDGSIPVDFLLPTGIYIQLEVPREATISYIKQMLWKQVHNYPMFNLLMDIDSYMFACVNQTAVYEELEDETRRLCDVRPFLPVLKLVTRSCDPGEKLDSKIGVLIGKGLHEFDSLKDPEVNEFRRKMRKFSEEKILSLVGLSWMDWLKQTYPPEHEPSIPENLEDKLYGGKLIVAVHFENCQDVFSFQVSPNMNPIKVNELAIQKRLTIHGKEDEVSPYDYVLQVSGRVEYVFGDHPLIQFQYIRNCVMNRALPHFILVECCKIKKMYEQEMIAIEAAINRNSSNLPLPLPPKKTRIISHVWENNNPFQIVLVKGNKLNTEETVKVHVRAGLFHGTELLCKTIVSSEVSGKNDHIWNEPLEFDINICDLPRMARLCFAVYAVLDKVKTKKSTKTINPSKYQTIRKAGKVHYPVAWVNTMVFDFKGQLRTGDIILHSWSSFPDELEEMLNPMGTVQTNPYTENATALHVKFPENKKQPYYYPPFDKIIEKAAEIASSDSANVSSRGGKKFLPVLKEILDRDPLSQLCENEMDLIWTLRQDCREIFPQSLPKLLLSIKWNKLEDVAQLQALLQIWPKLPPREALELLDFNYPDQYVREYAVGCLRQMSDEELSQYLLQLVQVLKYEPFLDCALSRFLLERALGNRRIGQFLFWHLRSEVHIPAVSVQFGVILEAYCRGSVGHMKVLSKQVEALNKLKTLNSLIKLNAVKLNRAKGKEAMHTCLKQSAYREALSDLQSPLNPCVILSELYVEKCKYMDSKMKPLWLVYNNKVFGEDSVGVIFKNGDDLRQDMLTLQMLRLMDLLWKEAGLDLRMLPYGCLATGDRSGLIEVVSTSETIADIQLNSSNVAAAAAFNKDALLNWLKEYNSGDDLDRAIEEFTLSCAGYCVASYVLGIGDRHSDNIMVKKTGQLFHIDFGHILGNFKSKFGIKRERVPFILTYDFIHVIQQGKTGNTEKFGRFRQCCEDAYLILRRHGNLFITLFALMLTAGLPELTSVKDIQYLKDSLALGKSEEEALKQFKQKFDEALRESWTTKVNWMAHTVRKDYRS
Test: PI3K β inhibition assay (TLC lipid kinase or HTRF)
Type: biochemical
Conditions: PI3K β IC50
METRIC: IC50

CN1CCN(c2nc3ccccc3cc2Cn2cnc3c(N)ncnc32)CC1 > 1 µM

Okay, next one:
API: value(readout= IC50, system= p110β/p85α (Homo sapiens, UniProt P42338), query= "NC(=O)c1nn(Cc2cc3ccccc3nc2-c2ccccc2F)c2ncnc(N)c12" )
> 1 µM

---

Target: p110α/p85α (Homo sapiens (Human), UniProt P42336)
Sequence (P42336 whole entry): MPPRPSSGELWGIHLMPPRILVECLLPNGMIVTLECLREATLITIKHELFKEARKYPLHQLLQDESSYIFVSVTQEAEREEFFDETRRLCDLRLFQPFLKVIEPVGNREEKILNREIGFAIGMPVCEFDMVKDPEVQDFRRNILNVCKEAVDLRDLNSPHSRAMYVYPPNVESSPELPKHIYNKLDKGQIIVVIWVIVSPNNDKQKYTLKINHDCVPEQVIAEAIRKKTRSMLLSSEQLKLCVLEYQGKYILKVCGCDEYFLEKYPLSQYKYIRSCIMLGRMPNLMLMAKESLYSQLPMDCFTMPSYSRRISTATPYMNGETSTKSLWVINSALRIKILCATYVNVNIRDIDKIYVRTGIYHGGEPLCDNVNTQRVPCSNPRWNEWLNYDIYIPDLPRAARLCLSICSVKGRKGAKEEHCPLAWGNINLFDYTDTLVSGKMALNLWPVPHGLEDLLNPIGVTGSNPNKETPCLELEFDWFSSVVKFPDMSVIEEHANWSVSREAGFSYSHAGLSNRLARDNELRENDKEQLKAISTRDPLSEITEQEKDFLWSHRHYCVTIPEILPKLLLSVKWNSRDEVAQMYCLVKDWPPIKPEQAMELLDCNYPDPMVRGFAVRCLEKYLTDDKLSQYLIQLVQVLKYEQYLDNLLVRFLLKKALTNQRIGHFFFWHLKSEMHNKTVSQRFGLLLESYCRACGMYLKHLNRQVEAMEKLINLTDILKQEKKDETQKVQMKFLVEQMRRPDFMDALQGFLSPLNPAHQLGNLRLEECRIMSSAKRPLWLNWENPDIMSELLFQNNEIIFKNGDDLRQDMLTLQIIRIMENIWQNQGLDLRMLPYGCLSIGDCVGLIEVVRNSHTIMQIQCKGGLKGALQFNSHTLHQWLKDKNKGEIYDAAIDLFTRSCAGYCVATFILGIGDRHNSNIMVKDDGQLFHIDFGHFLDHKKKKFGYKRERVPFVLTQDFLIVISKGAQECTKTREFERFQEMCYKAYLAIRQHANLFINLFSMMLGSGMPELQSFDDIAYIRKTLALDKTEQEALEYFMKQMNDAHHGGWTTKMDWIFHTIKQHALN
Sequence (P27986 whole entry partner): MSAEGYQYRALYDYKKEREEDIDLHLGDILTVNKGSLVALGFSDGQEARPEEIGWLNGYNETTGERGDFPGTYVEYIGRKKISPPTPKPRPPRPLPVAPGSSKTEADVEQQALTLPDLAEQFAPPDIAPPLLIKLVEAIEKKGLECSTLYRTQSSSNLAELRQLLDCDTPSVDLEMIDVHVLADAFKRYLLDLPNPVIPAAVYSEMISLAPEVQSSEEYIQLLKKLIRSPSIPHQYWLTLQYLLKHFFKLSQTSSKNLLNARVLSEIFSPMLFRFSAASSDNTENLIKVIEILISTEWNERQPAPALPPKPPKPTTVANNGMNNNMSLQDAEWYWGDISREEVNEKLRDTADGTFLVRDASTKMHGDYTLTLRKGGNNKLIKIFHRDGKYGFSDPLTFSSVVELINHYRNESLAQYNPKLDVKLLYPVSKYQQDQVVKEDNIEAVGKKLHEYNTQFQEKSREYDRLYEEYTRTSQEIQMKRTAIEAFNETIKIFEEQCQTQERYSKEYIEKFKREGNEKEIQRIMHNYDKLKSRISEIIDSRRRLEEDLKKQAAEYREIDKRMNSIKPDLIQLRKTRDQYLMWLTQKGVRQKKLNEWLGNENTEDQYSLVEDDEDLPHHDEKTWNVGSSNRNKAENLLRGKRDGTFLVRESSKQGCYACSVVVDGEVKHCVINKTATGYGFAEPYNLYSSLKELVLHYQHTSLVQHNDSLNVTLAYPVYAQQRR
Test: PI3K α inhibition assay (TLC lipid kinase or HTRF)
Catalogue of IC50 readings, one per entry.

Worked set:
Nc1ncc2cc(-c3nn(Cc4cc5ccccc5nc4-c4ccccc4)c4ncnc(N)c34)ccc2n1 100 to 1000 nM
Nc1ncnc2c1c(-c1ccnc(O)c1)nn2Cc1cc2ccccc2nc1-c1ccccc1F > 1000 nM
Nc1ncnc2c1c(-c1cc(O)cc(F)c1)nn2Cc1cc2ccccc2[nH]c1=O > 1000 nM
Nc1nc2ccc(-c3nn(Cc4cc5ccccc5nc4N4CCOCC4)c4ncnc(N)c34)cc2s1 < 100 nM

Please look up its IC50: "CCN(CC)c1nc2ccccc2cc1Cn1nc(-c2cc(O)cc(F)c2)c2c(N)ncnc21"
> 1000 nM

Which IC50 is reported for this compound? "Nc1ncnc2c1c(-c1cccc(O)c1)nn2Cc1cc2ccccc2nc1N1CCOCC1"
> 1000 nM

Fill in: IC50 of "Cc1ccccc1-c1nc2ccccc2cc1Cn1nc(-c2ccc3oc(N)nc3c2)c2c(N)ncnc21" is ___
> 1000 nM

Would you mind telling me what IC50 value was observed for "Nc1nc2cc(-c3nn(Cc4cc5ccccc5nc4-c4ccccc4)c4ncnc(N)c34)ccc2o1" ?
> 1000 nM

---

Parameter IC50: see the listing below.
Target: p110α/p85α (Homo sapiens (Human))
Assay: PI3K α inhibition assay (TLC lipid kinase or HTRF)

Examples with answers:
COMPOUND	RESULT
CC(=O)Nc1nc2ccc(-c3nn(Cc4cc5ccccc5nc4CCN4CCCC4)c4ncnc(N)c34)cc2s1 [Compound 166]	0.1 to 1 µM
Nc1ncnc2c1c(-c1cc(O)cc(F)c1)nn2Cc1cc2ccccc2nc1N1CCCC1 [Compound 2]	> 1 µM
CCn1c(=O)c(Cn2nc(-c3cccc(O)c3)c3c(N)ncnc32)nc2ccccc21 [Compound 116]	> 1 µM

Could you now consider this next compound?
Given the entry CC(c1cc2ccccc2nc1N1CCN(C)CC1)n1nc(-c2cccc(O)c2)c2c(N)ncnc21 (stereo not shown) [Compound 72] , report its measured IC50.
> 1 µM

---

Target: p110β/p85α (Homo sapiens)
Experiment: PI3K β inhibition assay (TLC lipid kinase or HTRF)
Type: biochemical
Details: read-out: PI3K β IC50
METRIC: IC50

IC50 lookup needed for Nc1ncnc2c1c(-c1ccc(O)nc1)nn2Cc1cc2ccccc2nc1-c1ccccc1F [Compound 161] , thanks.
> 1000 nM

Look up IC50: Nc1ncnc2c1c(-c1cccc(O)c1)nn2Cc1nc2ccccc2nc1N1CCCC1 [Compound 105]
> 1000 nM

So what does the record say about IC50 for CCN1CCN(c2nc3ccccc3cc2Cn2nc(-c3cc(O)cc(F)c3)c3c(N)ncnc32)CC1 [Compound 38] ?
< 100 nM

Any idea what IC50 was measured for CC(C)N1CCN(c2nc3ccccc3cc2Cn2nc(-c3ccc4nc(N)sc4c3)c3c(N)ncnc32)CC1 [Compound 164] ?
< 100 nM

---

// reported pIC50 per item
Molecular target: p110δ/p85α (Homo sapiens (Human), UniProt O00329)
Sequence (O00329 whole entry, one chain of several): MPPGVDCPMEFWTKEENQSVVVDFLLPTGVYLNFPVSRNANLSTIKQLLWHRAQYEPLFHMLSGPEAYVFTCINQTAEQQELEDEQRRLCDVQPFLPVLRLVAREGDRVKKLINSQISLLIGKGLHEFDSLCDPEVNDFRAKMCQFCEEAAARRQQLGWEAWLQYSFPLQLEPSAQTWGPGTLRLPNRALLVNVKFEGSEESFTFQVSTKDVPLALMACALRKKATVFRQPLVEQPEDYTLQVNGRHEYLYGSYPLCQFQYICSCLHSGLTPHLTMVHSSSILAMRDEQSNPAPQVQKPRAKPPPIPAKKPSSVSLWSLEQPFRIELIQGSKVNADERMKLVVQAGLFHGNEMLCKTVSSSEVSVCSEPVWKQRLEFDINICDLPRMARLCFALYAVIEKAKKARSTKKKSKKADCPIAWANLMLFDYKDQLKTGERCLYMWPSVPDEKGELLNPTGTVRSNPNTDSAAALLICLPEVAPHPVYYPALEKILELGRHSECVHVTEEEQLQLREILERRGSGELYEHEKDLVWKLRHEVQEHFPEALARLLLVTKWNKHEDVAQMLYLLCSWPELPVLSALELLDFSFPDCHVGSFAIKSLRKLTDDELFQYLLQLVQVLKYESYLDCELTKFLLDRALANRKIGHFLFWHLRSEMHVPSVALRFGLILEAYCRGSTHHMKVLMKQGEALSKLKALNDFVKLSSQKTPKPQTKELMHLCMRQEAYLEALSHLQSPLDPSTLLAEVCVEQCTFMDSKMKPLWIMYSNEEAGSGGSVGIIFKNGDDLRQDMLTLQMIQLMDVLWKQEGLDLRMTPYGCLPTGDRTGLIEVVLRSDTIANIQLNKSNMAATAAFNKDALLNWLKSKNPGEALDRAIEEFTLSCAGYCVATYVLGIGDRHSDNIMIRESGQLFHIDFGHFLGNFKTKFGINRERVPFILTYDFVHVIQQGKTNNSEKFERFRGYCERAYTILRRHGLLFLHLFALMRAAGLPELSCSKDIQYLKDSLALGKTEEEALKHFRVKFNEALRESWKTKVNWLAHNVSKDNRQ
Test: PI3K δ inhibition assay (TLC lipid kinase or HTRF)
Assay type: biochemical
pIC50: −log10 of the molar value.

Completed entries (count: 3):
Cc1cccc2cc(Cn3nc(-c4cc(O)cc(F)c4)c4c(N)ncnc43)c(N3CCN(C)CC3)nc12 > 7.00
C[C@@H](O)C#Cc1nn(Cc2cc3ccccc3nc2-c2ccccc2C(F)(F)F)c2ncnc(N)c12 6.00 to 7.00
Nc1ncnc2c1c(-c1cc(F)ccc1O)nn2Cc1cc2ccccc2nc1N1CCCC1 < 6.00

// moving on: another record for pIC50
Look at this compound and give its reported pIC50. "CC(C)N(C)c1nc2ccccc2cc1Cn1nc(-c2ccc3nc(N)[nH]c3c2)c2c(N)ncnc21"
> 7.00

---

// reported IC50 per item
Target: p110δ/p85α (Homo sapiens (Human))
Experiment: PI3K δ inhibition assay (TLC lipid kinase or HTRF)

Here's what some known entries look like.
COMPOUND	TGT	IC50
Nc1ncnc2c1c(-c1cc(O)cc(F)c1)nn2Cc1cc2ccccc2nc1N1CCN(CCO)CC1	p110δ/p85α (Homo sapiens (Human))	< 0.1 µM
CNc1ncnc2c1c(-c1cc(O)cc(F)c1)nn2Cc1cc2ccccc2nc1N(C)CCN1CCOCC1	p110δ/p85α (Homo sapiens (Human))	> 1 µM
CN1CCN(CCc2nc3ccccc3cc2Cn2nc(-c3cc(O)cc(F)c3)c3c(N)ncnc32)CC1	p110δ/p85α (Homo sapiens (Human))	< 0.1 µM
CCN1CCN(c2nc3ccccc3cc2Cn2nc(-c3cc(O)cc(F)c3)c3c(N)ncnc32)CC1	p110δ/p85α (Homo sapiens (Human))	< 0.1 µM
CC(=O)Nc1nc2ccc(-c3nn(Cc4cc5ccccc5nc4-c4ccccc4F)c4ncnc(N)c34)cc2[nH]1	p110δ/p85α (Homo sapiens (Human))	0.1 to 1 µM
Nc1nc2cc(-c3nn(Cc4cc5ccccc5nc4N4CCCC4)c4ncnc(N)c34)ccc2[nH]1	p110δ/p85α (Homo sapiens (Human))	< 0.1 µM
Nc1ncnc2c1c(-c1ccccc1O)nn2Cc1cc2ccccc2nc1N1CCCC1	p110δ/p85α (Homo sapiens (Human))	> 1 µM

# next compound below
Returns the measured IC50 for the input compound. Input: CC(c1cc2ccccc2nc1N1CCN(C)CC1)n1nc(-c2cccc(O)c2)c2c(N)ncnc21 (centres unmarked)
< 0.1 µM

---

Biological target: p110δ/p85α (Homo sapiens (Human))
Experiment: PI3K δ inhibition assay (TLC lipid kinase or HTRF)
pIC50: −log10 of the molar value.
METRIC: pIC50

Example results:
COMPOUND	pIC50
Cn1c(=O)c(Cn2nc(-c3cccc(O)c3)c3c(N)ncnc32)cc2ccccc21 [Compound 111]	6.00 to 7.00
Nc1ncnc2c1c(-c1cc(O)cc(F)c1)nn2Cc1cc2ccccc2nc1NCCN1CCOCC1 [Compound 75]	> 7.00
Cc1ccncc1-c1nc2ccccc2cc1Cn1nc(-c2cccc(O)c2)c2c(N)ncnc21 [Compound 78]	> 7.00
CN1CCN(c2nc3ccccc3cc2Cn2nc(I)c3c(N)ncnc32)CC1 [Compound 44]	6.00 to 7.00
CC(=O)Nc1nc2ccc(-c3nn(Cc4cc5ccccc5nc4N4CCCC4)c4ncnc(N)c34)cc2s1 [Compound 195]	> 7.00
COc1ccccc1-c1nc2ccccc2cc1Cn1nc(C#C[C@@H](C)O)c2c(N)ncnc21 [Compound 18]	< 6.00
Nc1ncnc2c1c(-c1cccc(O)c1)nn2Cc1cc2ccccc2nc1N1CCCC1 [Compound 47]	> 7.00

Consider the additional compound presented here.
Item Nc1ncc2cc(-c3nn(Cc4cc5ccccc5nc4N4CCOCC4)c4ncnc(N)c34)ccc2n1 [Compound 139] has what recorded pIC50?
> 7.00

---

Target: p110α/p85α (Homo sapiens (Human), UniProt P42336)
Test: PI3K α inhibition assay (TLC lipid kinase or HTRF)
METRIC: IC50

// worked examples, IC50 included
COMPOUND	IC50
Nc1cc(-c2nn(Cc3cc4ccccc4nc3-c3ccccc3)c3ncnc(N)c23)ccn1	> 1000 nM
CN1CCN(c2nc3ccccc3cc2Cn2nc(-c3cccc(O)c3)c3c(N)ncnc32)CC1	> 1000 nM
Nc1ncnc2c1c(-c1cc(O)cc(F)c1)nn2Cc1cc2ccccc2nc1Cl	> 1000 nM
CC(=O)Nc1nc2ccc(-c3nn(Cc4cc5ccccc5nc4N4CCCC4C)c4ncnc(N)c34)cc2s1 (centres unmarked)	100 to 1000 nM
Cc1ccccc1-c1nc2ccccc2cc1Cn1nc(-c2ccc3ncnc(N)c3c2)c2c(N)ncnc21	> 1000 nM

// lookup IC50 for "CN1CCN(c2nc3ccccc3cc2Cn2cnc3c(N)ncnc32)CC1"
> 1000 nM

// returns reported IC50 for input "CC(=O)Nc1nc2ccc(-c3nn(Cc4cc5ccccc5nc4CCN4CCN(C)CC4)c4ncnc(N)c34)cc2s1"
100 to 1000 nM

What value of IC50 has been recorded for this entry: CC(c1cc2ccccc2nc1-c1ccccc1)n1nc(C#C[C@@H](C)O)c2c(N)ncnc21 (some centres unmarked)
> 1000 nM
